experimental context: pH 7.2
experimental endpoint: logD
Format: numeric value only, no unit, no commentary.

Query string: Quick one: logD for N#CC(C#N)=NNc1ccc(CCCl)cc1 ?
Result string: 2.44

###

protocol notes: method code SF-GLC, from DOI: 10.1021/es60128a001
experimental endpoint: logP
Format: numeric value only, no unit, no commentary.

Query string: Quick one: logP for CCOP(=S)(OCC)SC(CCl)N1C(=O)c2ccccc2C1=O (stereo unspecified) ?
Result string: 4.69

###

protocol notes: method code SF, from DOI: 10.1023/a:1016286026462, PMID: 8570535
Listing: logP of selected compounds

COc1ccc(C=CC(=O)OCCC(C)C)cc1 = 4.83

Here is another compound to look at.
Query string: Quick one: logP for Oc1cc(Cl)ccc1Oc1ccc(Cl)cc1Cl ?
Result string: 4.53

###

experimental endpoint: logP

Query string: Quick one: logP for CCCCCCCCO ?
Result string: 3

###

protocol notes: method code SF-AS, from DOI: 10.1248/cpb.36.1393
experimental context: pH 7.4
experimental endpoint: logD
Format: numeric value only, no unit, no commentary.

Query string: Quick one: logD for Clc1ccc2c(Cl)ccnc2c1 ?
Result string: 3.57

###

protocol notes: method code SF-AS, from DOI: 10.1021/jm00371a014, PMID: 6716401
experimental context: pH 7.4
experimental endpoint: logD
Format: numeric value only, no unit, no commentary.

Query string: Quick one: logD for COc1cccc2c1C(=N)c1c(O)c3c(c(O)c1C2=O)C[C@](O)(C(=O)CO)C[C@@H]3O[C@H]1C[C@@H](N2CCOC[C@@H]2C#N)[C@@H](O)[C@@H](C)O1 ?
Result string: 1.97

###

protocol notes: method code SF-RC, from DOI: 10.1002/ps.2780410303
experimental context: pH 1.8
experimental endpoint: logD
Format: numeric value only, no unit, no commentary.

Query string: Quick one: logD for CC(C)C1(C)N=C(c2ncc(Br)cc2C(=O)O)NC1=O (stereo unspecified) ?
Result string: 1.19

###

experimental endpoint: logP
Format: numeric value only, no unit, no commentary.

Query string: Quick one: logP for CC(C)(C)c1cn2nc(S(N)(=O)=O)sc2n1 ?
Result string: 2.15

###

Listing: logP of selected compounds
Format: numeric value only, no unit, no commentary.

Solved entries:
C=C1CC[C@H](O)C/C1=C/C=C1\CCC[C@]2(C)[C@@H]([C@H](C)CCCC(C)C)CC[C@@H]12 = 10.2
CC1=C(C/C=C(\C)CCC[C@H](C)CCC[C@H](C)CCCC(C)C)C(=O)c2ccccc2C1=O = 11.7

Here is another compound to look at.
Query string: Quick one: logP for CC(C)CCC[C@@H](C)[C@H]1CC[C@H]2C3=CC=C4C[C@@H](O)CC[C@]4(C)[C@H]3CC[C@]12C ?
Result string: 8.65

###

Listing: logP of selected compounds
Format: numeric value only, no unit, no commentary.

Solved entries:
CCCNCc1ccc(C)cc1 = 2.96
CCCCCNCc1ccc(C)cc1 = 4.26

Here is another compound to look at.
Query string: Quick one: logP for CNCc1ccc(C)cc1 ?
Result string: 1.96

###

protocol notes: method code SF-HPLC, from Blakemore, C.; Brown, H.; Durant, J.; Emmett, C.; Ganellin, R.; Parsons, E.; Rasmussen, C. (1980). SK&F 92994: a new histamine H2-receptor antagonist. COMMUNICATIONS: Part II. Br. J. Pharmacol., …
experimental endpoint: logP
Format: numeric value only, no unit, no commentary.

Query string: Quick one: logP for COC(=O)c1ccc(CN(C)N=O)cc1 ?
Result string: 1.21

###

experimental endpoint: logP
Format: numeric value only, no unit, no commentary.

Query string: Quick one: logP for CCCCc1ccncc1 ?
Result string: 3.13

###

experimental endpoint: logP

Query string: Quick one: logP for CC(=O)O[C@]1(C(C)=O)CC[C@H]2[C@@H]3C[C@H](F)C4=CC(=O)CC[C@]4(C)[C@H]3CC[C@@]21C ?
Result string: 3.48

###

experimental endpoint: logP
Format: numeric value only, no unit, no commentary.

Query string: Quick one: logP for C=CC[C@@H]1/C=C(\C)C[C@H](C)C[C@H](OC)[C@H]2O[C@@](O)(C(=O)C(=O)N3CCCC[C@H]3C(=O)O[C@H](/C(C)=C/[C@@H]3CC[C@@H](O)[C@H](OC)C3)[C@H](C)[C@@H](O)CC1=O)[C@H](C)C[C@@H]2OC ?
Result string: 3.3

###

protocol notes: method code SF-RC, from DOI: 10.1021/jm000079i, PMID: 10956218
experimental context: pH 7.4
Listing: logD of selected compounds
Format: numeric value only, no unit, no commentary.

CN(C)c1ccccc1Sc1ccc(Cl)cc1N = 3.55

Here is another compound to look at.
Query string: Quick one: logD for COc1ccc(Sc2ccccc2N(C)C)c(N)c1 ?
Result string: 2.83

###

Listing: logD of selected molecules
protocol notes: method code SF-RC, from DOI: 10.1016/j.nucmedbio.2016.01.003, PMID: 27067043
experimental context: pH 7.4
Format: numeric value only, no unit, no commentary.

C=CC(=O)NCCCCC(NC(=O)OCc1ccccc1)C(=O)N1CCN(c2ccccc2Cl)CC1 (configuration not stated) = 3

Query string: Quick one: logD for C=CC(=O)Nc1ccc(S(=O)(=O)N2CCN(C(=O)C34CC5CC(CC(C5)C3)C4)CC2)cc1 ?
Result string: 2.67

###

protocol notes: method code SF-RC, from DOI: 10.1023/a:1015867608405, PMID: 1614980
experimental context: pH 7.4
Square brackets hold non-standard residues; d marks the D form. Peptide text beside a SMILES is read from it. NMeF = CN[CH](Cc1ccccc1)C(=O)O
Listing: logD of selected compounds
Format: numeric value only, no unit, no commentary.

Solved entries:
CC(=O)N(C)C(Cc1ccccc1)C(=O)N(C)C(Cc1ccccc1)C(=O)N(C)C(Cc1ccccc1)C(N)=O (stereo not drawn) (Ac-[NMeF]-[NMeF]-[NMeF]-NH2; configuration not given here) = 2.92
CC(=O)NC(Cc1ccccc1)C(=O)NC(Cc1ccccc1)C(=O)N(C)C(Cc1ccccc1)C(N)=O (stereo not drawn) (Ac-Phe-Phe-[NMeF]-NH2; configuration not given here) = 2.63

Query string: Quick one: logD for CNC(=O)C(Cc1ccccc1)N(C)C(=O)C(Cc1ccccc1)N(C)C(=O)C(Cc1ccccc1)N(C)C(C)=O (stereo not drawn) (Ac-[NMeF]-[NMeF]-[NMeF]-NHMe; configuration not given here) ?
Result string: 3.24

###

protocol notes: method code SF-AS, from DOI: 10.1021/jm00099a010, PMID: 1433194
experimental context: pH 7.4
experimental endpoint: logD
Format: numeric value only, no unit, no commentary.

Query string: Quick one: logD for CN1CCN(Cc2ccc(C(=O)c3csc(S(N)(=O)=O)c3)cc2)CC1 ?
Result string: 0.37

###

Listing: logP of selected compounds
Format: numeric value only, no unit, no commentary.

Solved entries:
COc1ccc(-c2cc(C#N)c(N3CCOCC3)nc2C)cc1 = 4.4
COc1ccc(-c2cc(C#N)c(Cl)nc2C)cc1 = 3.38
Cc1nc(Cl)c(C#N)cc1-c1ccccc1 = 3.24

Query string: Quick one: logP for Cc1nc(N2CCOCC2)c(C#N)cc1-c1ccccc1 ?
Result string: 3.65

###

Listing: logP of selected compounds
Format: numeric value only, no unit, no commentary.

Query string: Quick one: logP for CCc1c(Sc2ccccc2)n(COCc2ccccc2)c(=O)[nH]c1=O ?
Result string: 3.23

Query string: Subsequent entry: CCOCn1c(Cc2cc(C)cc(C)c2)c(CC)c(=O)[nH]c1=O
Result string: 2.78

Query string: Subsequent entry: CCOCn1c(Cc2ccccc2)c(C(C)C)c(=O)[nH]c1=O
Result string: 2.35

Query string: Subsequent entry: CCOCn1c(Sc2ccccc2)c(CC)c(=O)[nH]c1=O
Result string: 2.11

Query string: Subsequent entry: CCOCn1c(S)nc(=O)c(CC)c1Sc1ccccc1
Result string: 3.05

###

protocol notes: method code SF-HPLC, from DOI: 10.1021/jm300631e, PMID: 22734650
experimental context: pH 7.4
experimental endpoint: logD
Format: numeric value only, no unit, no commentary.

Query string: Quick one: logD for C=CCC1(c2cccc(C3(C(F)(F)F)N=N3)c2)C(=O)NC(=O)N(C)C1=O (stereo unspecified) ?
Result string: 3.79

###

Listing: logP of selected compounds
Format: numeric value only, no unit, no commentary.

Solved entries:
Clc1cc2c(c(Cl)c1Cl)Oc1cc(Cl)c(Cl)c(Cl)c1O2 = 7.8
Clc1cc2oc3c(Cl)c(Cl)c(Cl)c(Cl)c3c2cc1Cl = 6.6

Query string: Quick one: logP for Clc1cc2c(oc3cc(Cl)c(Cl)c(Cl)c32)c(Cl)c1Cl ?
Result string: 6.6
